System: SW-620 colon
Assay: NCI tumour cell line growth inhibition, 48 h; in the data active means GI50 below about 0.43 µM; inactive means the rest
Could you please pick one outcome from this set? 1.0 (active), 0.0 (inactive)

Example cases with answers are listed next.
> print(dat)
                              smiles.record  discrete.label
1                   CCCCC#CC1=C(Br)C(=O)OC1             1.0
2  S=C(Nc1ccc(Cl)cc1)Nc1ccc(-c2nc3ccccc3s2)cc1             0.0
3  CC[As](CC)SC[C@H](C)C(=O)N1CCC[C@H]1C(=O)O             1.0
4  COc1cc(-c2oc(=O)ccc2C#Cc2ccccn2)cc(OC)c1OC             0.0
5  C#CCOc1cccc(-c2ncc3cc(NC(=O)CCl)ccc3n2)c1             0.0

Ask: For c1ccc(-c2nnc(-c3ccccn3)s2)nc1 , what call appears in the results of this test?
Result: 0.0

Ask: For Nc1ccc([N+](=O)[O-])cc1N=C/C=C/c1ccccc1 , what call appears in the results of this test?
Result: 0.0

Ask: For CO/N=C(/C)c1cccc(Nc2cc(-n3nnc4ccccc43)nc3ccccc23)c1 , what call appears in the results of this test?
Result: 0.0

Ask: For COc1cc(Nc2ncccc2C(=O)NCc2cn(Cc3cccc(Oc4ccccc4)c3)nn2)cc(OC)c1 , what call appears in the results of this test?
Result: 0.0

Ask: For Cn1c(I)c(C#CCO[Si](C)(C)C(C)(C)C)c(=O)[nH]c1=O , what call appears in the results of this test?
Result: 0.0

Ask: For COc1ccc(Sc2[nH]c(C(C)=O)c3ccccc23)cc1 , what call appears in the results of this test?
Result: 0.0

* * *

Catalogue of TGI values
System: LXFL 529 NSCLC
Experiment: NCI tumour cell line growth inhibition, 48 h

> print(dat)
                                   compound  value.type  observed.result
1  CC(C)(C)NNC(=O)CCn1[nH]c(=O)c(Cl)c(Cl)c1=O         TGI         > 100 µM
2                CC(=O)CCn1ncc(Cl)c(Cl)c1=O         TGI          27.3 µM
3  Nc1nc(Cl)cc(NCCCCCCCCNc2cc(Cl)nc(N)n2)n1         TGI          27.1 µM
4  CC1(C)COC(C2(C)C(=O)C=C(c3ccccc3)c3ccccc32)=N1 (stereo not drawn)         TGI         > 100 µM
5  CCCCCCCCCCCCCC(=O)OCC(C[As](=O)(O)O)OC(=O)CCCCCCCCCCCCC (stereo not drawn)         TGI         > 100 µM

Ask: Given NC(=S)N/N=C(\CC1OC(=O)c2ccccc21)c1ccc(Cl)cc1 (stereo not drawn) , state its recorded TGI.
Result: > 100 µM

Ask: Given O=C(Nc1ccn(CCO)c(=O)n1)c1ccccc1 , state its recorded TGI.
Result: > 100 µM

Ask: Given O=C1c2cccc3c2C(=O)c2c(cccc21)OCCOCCOCCOCCO3 , state its recorded TGI.
Result: > 100 µM

* * *

Test system: SW-620 colon
Test: NCI tumour cell line growth inhibition, 48 h
VALUE TYPE: TGI

Example results:
> print(dat)
                                    compound  observed.result
 1  N.N.N.N.O=C([O-])CCl.O=C([O-])CCl.[Co+3].[O-][Cl+3]([O-])([O-])[O-]         > 100 µM
 2  CCn1c(-c2ccccc2)cs/c1=N\C(P(=O)(O)O)P(=O)(O)O         > 100 µM
 3  N=C(N)C1CN(CCc2c[nH]c3ccccc23)C(=O)NC1=O (stereo not given)         > 100 µM
 4  CO/N=C(/C)c1cccc(Nc2cc(-n3nnc4ccccc43)nc3ccccc23)c1         > 100 µM
 5                      CN=C(n1ccnc1)n1ccnc1         > 100 µM
 6  Cc1c2n(c(=O)[nH]c1=O)C1OC(CO)C(O2)C1O (stereo not given)         > 100 µM
 7     COc1cc(C(=O)N2CCN(C=O)C2=S)cc(OC)c1OC            70 µM
 8  Cc1c(C)c2c(c(N)c1C#N)C(=O)N(NC(=O)c1ccccc1)C2=O         > 100 µM
 9  O=C1C2SC34c5c2c2ccccc2n5CCC3CCCN14 (stereo not given)         > 100 µM
10  CCC12CCCN(Cc3ccccc3)C1c1c(n(C)c3ccccc13)CC2 (stereo not given)         > 253 µM

Could you now look at the following compound, please?
Ask: Given CNCc1ccccc1-c1csc([C@@H](C)Nc2nc(C)nc3cc(OC)c(OC)cc23)c1 , state its recorded TGI.
Result: 3.44 µM

* * *

System: SNB-75 CNS
Assay: NCI tumour cell line growth inhibition, 48 h; in the data active means GI50 below about 0.43 µM; inactive means the rest
Could you please pick one outcome from this set? active, inactive

Example cases with answers are listed next.
> print(dat)
                              smiles.record  discrete.label
1           COc1ccc(/C=C\[N+](=O)[O-])cc1OC        inactive
2           Oc1ccc(Nc2ncnc3c2sc2ncccc23)cc1          active
3       N#Cc1c(NC(=O)NCc2ccccc2)sc2c1CCCCC2          active
4  CC[As](CC)SC[C@H](C)C(=O)N1CCC[C@H]1C(=O)O          active
5    N#Cc1c(N)nc(N2CCOCC2)c(C#N)c1-c1ccncc1        inactive

Moving on to the next molecule.
Ask: For COc1cc(Nc2ncccc2C(=O)NCc2cn(Cc3cccc(Oc4ccccc4)c3)nn2)cc(OC)c1 , what call appears in the results of this test?
Result: inactive

* * *

Tested on: IGROV1 ovarian
Assay: NCI tumour cell line growth inhibition, 48 h; in the data active means GI50 below about 0.43 µM; inactive means the rest
Could you please pick one outcome from this set? yes for active, no for inactive

Example cases with answers are listed next.
COMPOUND	ASSAY TARGET	DISCRETE LABEL
COc1cccc(F)c1C(=O)c1cnc(NC2CCN(S(C)(=O)=O)CC2)nc1N	IGROV1 ovarian	no
CCN1CCN(C(=O)[C@@]2(C)CC[C@]3(C)CC[C@]4(C)C(=CC(=O)[C@@H]5[C@@]6(C)CC[C@H](OC7C[C@@H](O)[C@@H](O)C(C)O7)C(C)(C)[C@@H]6CC[C@]54C)[C@@H]3C2)CC1 (stereo partly specified)	IGROV1 ovarian	no
COc1ccccc1/C=N\N/C(N)=N\N=C\c1ccccc1OC	IGROV1 ovarian	no
CC1=C(C(=O)Nc2ccc(F)c(Cl)c2)C(c2ccccc2O)NC(=S)N1 (stereo unspecified)	IGROV1 ovarian	no
Cc1cc(C)c2c(n1)sc1c(Nc3ccc(Cl)cc3)ncnc12	IGROV1 ovarian	no
CN1CCN(C2CCN(C(=O)Nc3cc(Oc4ccc(NC(=O)C5(C(=O)Nc6ccc(F)cc6)CC5)c(F)c4)ccn3)CC2)CC1	IGROV1 ovarian	no
CCCCC#CC1=C(Br)C(=O)OC1	IGROV1 ovarian	yes
CN(C)CCNC(=O)c1cccc2ccc(-c3ccc(O)cc3)nc12	IGROV1 ovarian	no
O=C(O)COc1ccc2c(=O)c3sc4c(=O)c5ccccc5c(=O)c4c3c(=O)c2c1	IGROV1 ovarian	no
COc1ccc(Sc2[nH]c(C(C)=O)c3ccccc23)cc1	IGROV1 ovarian	no

Moving on to the next compound.
Ask: For CCOC(=O)C1=CN(C)C=C(C(=O)OCC)C1c1cc(Br)c(OCC)c(OC)c1 , what call appears in the results of this test?
Result: no

* * *

Tested on: SW-620 colon
Experiment: NCI tumour cell line growth inhibition, 48 h; in the data active = GI50 below about 0.43 µM; inactive = the rest
Could you please pick one outcome from this set? y = active, n = inactive

> print(dat)
                              smiles.record  discrete.label
1       N#Cc1c(NC(=O)NCc2ccccc2)sc2c1CCCCC2               y
2  COC(=O)C[C@](O)(CCCC(C)(C)O)C(=O)O[C@@H]1C(OC)=C[C@]23CCCN2CCc2cc4c(cc2[C@H]13)OCO4               y
3  Cn1cc(C2=C(c3ccc(N)cc3)C(=O)NC2=O)c2ccccc21               n
4  COC(=O)COc1ccccc1/C=C1\N=C(c2ccccc2)N(c2cc(C(F)(F)F)ccc2Cl)C1=O               n

Moving on to the next compound.
Ask: For O=C(Nc1ccc(Nc2ccncc2)cc1)c1ccc([N+](=O)[O-])cc1 , what call appears in the results of this test?
Result: n

* * *

Catalogue of GI50 values
System: OVCAR-5 ovarian
Assay: NCI tumour cell line growth inhibition, 48 h

> print(dat)
                                   compound  value.type  observed.result
1     COc1cc(C(=O)N2CCN(C=O)C2=S)cc(OC)c1OC        GI50          48.5 µM
2            NC(=O)/C=C/C(=O)c1c(Cl)cccc1Cl        GI50          1.74 µM
3  COc1cc(-c2oc(=O)ccc2C#Cc2ccccn2)cc(OC)c1OC        GI50          10.5 µM
4  S=C(Nc1ccc(Cl)cc1)Nc1ccc(-c2nc3ccccc3s2)cc1        GI50          20.8 µM
5  N.N.N.N.O=C([O-])CCl.O=C([O-])CCl.[Co+3].[O-][Cl+3]([O-])([O-])[O-]        GI50         > 100 µM

Ask: Given Cc1cc(Nc2ccc(NC(=O)c3ccc(Nc4ccnc5ccccc45)cc3)cc2)nc(N)n1 , state its recorded GI50.
Result: 3.4 µM

Ask: Given CC1=C(C(=O)Nc2ccc(F)c(Cl)c2)C(c2ccccc2O)NC(=S)N1 (stereo not given) , state its recorded GI50.
Result: > 50 µM

Ask: Given CO/N=C(/C)c1cccc(Nc2cc(-n3nnc4ccccc43)nc3ccccc23)c1 , state its recorded GI50.
Result: 41.7 µM

Ask: Given Cn1cc(C2=C(c3ccc(N)cc3)C(=O)NC2=O)c2ccccc21 , state its recorded GI50.
Result: > 25 µM

Ask: Given COc1ccc(OC)c2c1[nH]c(=O)c1c3ccccc3cn21 , state its recorded GI50.
Result: 1.87 µM

Ask: Given Cn1c(I)c(C#CCO[Si](C)(C)C(C)(C)C)c(=O)[nH]c1=O , state its recorded GI50.
Result: 18 µM
